- Test system: BT-549 breast
- Assay text: NCI-60 one-dose screen, 48 h (100 = growth as untreated, 0 = no growth, -100 = all killed)
- Setup conditions: 10 µM unless noted
The panel holds about 83,000 compounds, 20% with a hit somewhere; the sample as a whole holds those more often.
Note to self: values exactly at 90% are Yes. So growth at or above 90% is Yes, below is No.

compound=COc1cc2oc(-c3cccc(NC(=O)c4ccccc4)c3)cc(=O)c2c(OC)c1OC group_label=No
compound=CCCC/C(CC)=N\NS(=O)(=O)c1ccc([N+](=O)[O-])cc1 group_label=Yes
compound="COc1cc(C2CC(c3ccc(Nc4nc(Nc5ccc(Cl)cc5)nc(Nc5ccc(Cl)cc5)n4)cc3)=NN2C(C)=O)cc(OC)c1OC (centres undefined)" group_label=Yes
compound="COC(=O)Nc1nc2ccc(S(=O)c3ccccc3)cc2[nH]1 (centres undefined)" group_label=No

[Q] Could you tell me if the measured growth of COc1ccc(C(C)=O)cc1S(=O)(=O)Nc1c(N)nc(SC)[nH]c1=O reaches 90% or more?
[A] Yes

[Q] Could you tell me if the measured growth of COCCn1cc(-c2nc(-c3cc4cccnc4[nH]3)cs2)c2cc(OC)ccc21 reaches 90% or more?
[A] No

[Q] Could you tell me if the measured growth of COc1ccc(-c2ccc(-c3ccc(C(=N)N)cc3)s2)cc1Cl reaches 90% or more?
[A] Yes

* * *

- System: KM12 colon
- Assay text: NCI-60 one-dose screen, 48 h (100 = growth as untreated, 0 = no growth, -100 = all killed)
- Setup conditions: 10 µM unless noted
This is part of a sample that, as a whole, favours compounds with a hit. Of some 83,000 tested, about 20% had one in any assay.
Note to self: values exactly at 70% are Condition met. So growth at or above 70% is Condition met, below is Condition not met.

Would you please look over these solved cases?
molecule=O=C(Nc1ccc(Oc2cccc(Cl)c2)c(Cl)c1)c1cccnc1 group_label="Condition not met"
molecule=CCOC(=O)c1c(NC(=O)c2ccc(Cl)cc2)sc2c(CN(C)C)c(O)ccc12 group_label="Condition met"

Please turn your attention to the following entry.
[Q] Could you tell me if the measured growth of Cc1c2cnccc2c(C)c2c1c1cc(C#N)ccc1n2C reaches 70% or more?
[A] Condition not met

* * *

- Test system: NCI-H522 lung
- Assay text: NCI-60 one-dose screen, 48 h (100 = growth as untreated, 0 = no growth, -100 = all killed)
- Setup conditions: 10 µM unless noted
About 83,000 compounds went through this panel and 20% of them were active in at least one assay; those are over-represented in the sample as a whole. Active and inactive are the calls of the source. The calls were made as follows: active = growth percent below 10; inactive = the rest.
Provide the reported growth of each item.

Reference set (5 entries):
compound=N=C(N)c1ccc(-c2ccc(-c3ccc(Cl)c(Cl)c3)s2)nc1 result="-34.5% (active)"
compound=O=C(c1ccccc1)c1ccc(C2CCCCC2)cc1 result="88.9% (inactive)"
compound=CCNCCNc1cc(-c2ccc(C(F)(F)F)cc2)c(C#N)c2nc3ccccc3n12 result="-69% (active)"
compound=Nc1c(C(=O)Nc2ccccc2F)sc2nc3c(cc12)CCCC3 result="23% (inactive)"
compound=O=C(O)c1cn(C2CC2)c2cc(N3CCN(C(=O)N(c4ccccc4)c4nc(-c5ccccc5)cs4)CC3)c(F)cc2c1=O result="-25% (active)"

I have 5 compounds here; please give me growth for each one.
1. CCn1cc(C(=O)NNC(=S)Nc2ccc(C)cc2)c(=O)c2ccc(C)nc21
2. CCOC(=O)c1csc(NC(=O)COc2ccc(/C=C3\Oc4ccccc4C3=O)cc2)n1
3. CCCCNC(=O)Oc1ccc(/C(=C(/C)Cc2ccc(OC)cc2)c2ccc(OCCN3CCCC3)cc2)cc1
4. CCCC/C=C/[C@@H]1C[C@H]1CCO
5. CC(C)(Sc1cc(C(C)(C)C)c(OC(=O)CCCC(=O)O)c(C(C)(C)C)c1)Sc1cc(C(C)(C)C)c(OC(=O)CCCC(=O)O)c(C(C)(C)C)c1

[A]
["97.3% (inactive)", "55.1% (inactive)", "55.5% (inactive)", "78.3% (inactive)", "37.8% (inactive)"]

I have 3 compounds here; please give me growth for each one.
1. O=C(/C=C(/C=C/c1ccc2[nH]ccc2c1)OB(F)F)/C=C/c1ccc2[nH]ccc2c1
2. O=C(N/N=C/c1ccc(Cl)cc1)c1[nH]c2ccc(Cl)cc2c1-c1ccccc1
3. CN(C)CCNC(=O)c1ccc(-c2nc3ccc4[nH]ncc4c3c3c2C2CCC3C2)cc1 (stereo not given)

[A]
1. -68.5% (active)
2. -32% (active)
3. -28.8% (active)

I have 5 compounds here; please give me growth for each one.
1. CC1=NC2=Nn3c(c4cnn(-c5ccccc5)c4n/c3=N\N)NN2C(c2ccccc2)=C1
2. C1CN(SSN2CCOCC2)CCO1
3. COC1=CC(c2ccc[nH]2)=N/C1=C\c1[nH]c(C)c(C)c1CCC(=O)OCc1ccccc1
4. C=C1CC[C@@H]2[C@](C)(COC(C)=O)[C@H](OC(C)=O)CC[C@@]2(C)[C@@H]1CC(Nc1ccc(S(=O)(=O)Nc2ncccn2)cc1)C1=CCOC1=O (stereo not given in full)
5. Oc1c(Br)cc(Br)c2ccc(Cn3cc(-c4ccccc4C(F)(F)F)nn3)nc12

[A]
["89% (inactive)", "-53.1% [100 µM] (active)", "-38.7% (active)", "-67.7% (active)", "24.6% (inactive)"]

I have 7 compounds here; please give me growth for each one.
1. COC(=O)c1nc(-c2ccccc2)oc1S(=O)(=O)Cc1ccccc1
2. CC(=O)N1N=C(c2ccc(Nc3nc(Nc4ccccc4)nc(Nc4ccccc4)n3)cc2)CC1c1ccccc1 (stereo not given)
3. O=C(c1ccncc1)N1N=C(c2ccc(Cl)cc2)C[C@H]1c1cn(-c2ccccc2)nc1-c1ccccc1
4. O=CN1N=C(c2cccc(Nc3ccnc4cc(Cl)ccc34)c2)CC1c1ccccc1 (stereo not given)
5. O=C1Nc2ccccc2/C1=C/c1cccn1CCCCn1c2ccccc2c(=O)c2ccccc21
6. N#Cc1ccc2c(c1)C(=O)c1c-2n(CCCN)c(=O)c2cc([N+](=O)[O-])ccc12
7. COCCn1cc(-c2csc(-c3cn(C)c4ccc(Br)cc34)n2)c2cccnc21

[A]
38.1% (inactive)
89.3% (inactive)
96.1% (inactive)
-25.8% (active)
68.4% (inactive)
-72.2% (active)
-35.7% (active)

I have 4 compounds here; please give me growth for each one.
1. COc1ccc(-c2ccc(=O)oc2-c2cc(OC)c(OC)c(OC)c2)cc1O
2. Cn1cc(-c2nonc2-c2cn(C)c3ccccc23)c2ccccc21
3. O=C(Nc1cccc(-c2ccc(Cl)c(C(F)(F)F)c2)c1)C1CCN(Cc2cccc3cccnc23)CC1
4. Fc1cnccc1C1CC(c2ccc(N3CCNCC3)cc2)=NN1 (stereo not given)

[A]
-11.7% (active)
-20.5% (active)
-53% (active)
81.9% (inactive)

I have 7 compounds here; please give me growth for each one.
1. Cn1c(=O)cc2c3c(c(NCCCO)ccc31)C(=O)c1ccccc1-2
2. C/C(=N\O)c1ccc(Cl)cc1
3. CN(c1cc2ncc(=O)[nH]c2cc1NC(N)=NCc1ccc(Cl)cc1)C1CCCCC1
4. Cn1ccnc1C(=O)/C=C/c1ccc(CC(=O)Nc2cc(C(F)(F)F)cc(C(F)(F)F)c2)cc1
5. CC(C)(C)CC(C)(C)NC(=O)Nc1ncccc1OCc1ccccc1
6. c1csc(-c2ccc(CNc3c4ccccc4nc4ccccc34)cc2)c1
7. CC(=O)N1N=C(c2ccc(Nc3nc(Nc4ccccc4)nc(Nc4ccccc4)n3)cc2)CC1c1cccc([N+](=O)[O-])c1 (stereo not given)

[A]
22.2% (inactive)
105% (inactive)
30.5% (inactive)
77.4% (inactive)
70.7% (inactive)
28.9% (inactive)
104% (inactive)

I have 4 compounds here; please give me growth for each one.
1. COc1ccc(C(=O)N2c3ccccc3Sc3ccccc32)c(OC)c1
2. CCSC(SCC)c1ccc(Cl)cc1
3. COc1ccc(NC2=C(I)C(=O)c3ncccc3C2=O)cc1
4. CCc1ccc(CCCC(=O)O)cc1

[A]
1: -9.67% (active); 2: 107% (inactive); 3: -69.4% (active); 4: 89.9% (inactive)
